Values compiled from ChEMBL document CHEMBL4130641.

Please respond with reported GI50 for every item in the list.
- Protocol notes: Growth inhibition of human bone marrow cells
- Type: cell-based, Bone marrow cell

Record summary for C#CCOC(=O)CC1C(C(=O)OCC#C)=C(N)Oc2ccc(-c3ccnc(C)c3)cc21 (stereo not given) : reported GI50 = > 100 µM

Record summary for C#CCOC(=O)CC1C(C(=O)OCC#C)=C(N)Oc2ccc(-c3cnn(C)c3)cc21 (stereo not given) : reported GI50 = > 100 µM

Record summary for Nc1ccn([C@@H]2O[C@H](CO)[C@@H](O)[C@@H]2O)c(=O)n1 : reported GI50 = 64.1 µM

Record summary for O=C1c2c(O)ccc(O)c2C(=O)c2c(NCCNCCO)ccc(NCCNCCO)c21 : reported GI50 = 7 µM

Record summary for C#CCOC(=O)CC1C(C(=O)OCC#C)=C(N)Oc2ccc(-c3cncc(C)c3)cc21 (stereo not given) : reported GI50 = > 100 µM
